Attribution: the Immune Epitope Database (IEDB)

# MEASUREMENT TARGET: HLA-A*30:01
# METHOD NOTES: IEDB peptide-MHC binding, purified MHC/competitive/radioactivity; filed as Kd, often an IC50 or EC50 that approximates it; bounds were set here for any values at or beyond the usual limits of such assays
# CONDITION INFO: source organism: Mammarenavirus whitewaterense
MEASURED PARAMETER: pKd
Note on pKd: it is the negative log10 of concentration, concentration in mol/L.

Query: pKd; subject: RCWLTKNGSY
5.42

----------
# MEASUREMENT TARGET: HLA-B*15:01
# METHOD NOTES: IEDB peptide-MHC binding, purified MHC/competitive/radioactivity; filed as Kd, often an IC50 or EC50 that approximates it; bounds were set here for any values at or beyond the usual limits of such assays
# CONDITION INFO: source organism: Lymphocytic choriomeningitis virus (strain Armstrong) (clone 53b)
MEASURED PARAMETER: Kd

Query: Kd; subject: KQFKQDSKY
13 nM

----------
# MEASUREMENT TARGET: HLA-A*02:01
# METHOD NOTES: IEDB peptide-MHC binding, purified MHC/direct/fluorescence; filed as Kd, often an IC50 or EC50 that approximates it; bounds were set here for any values at or beyond the usual limits of such assays
# CONDITION INFO: source organism: Marburg virus - Musoke, Kenya, 1980
pKd: −log10 of the molar value.
Parameter: pKd. Scope: all listed entries.

{"RESIDUE SEQUENCE": "NQECWDSVF", "MEASUREMENT TARGET": "HLA-A*02:01", "MEASURED PARAMETER": "pKd", "EXPERIMENTAL RESULT": "≤ 4.70"}

Now for the sequence whose pKd we want.
Look up pKd with HLA-A*02:01 for this sequence: KRLLLKLDF
≤ 4.70

----------
# MEASUREMENT TARGET: HLA-B*15:42
# METHOD NOTES: IEDB peptide-MHC binding, purified MHC/competitive/fluorescence; filed as Kd, often an IC50 or EC50 that approximates it; bounds were set here for any values at or beyond the usual limits of such assays
# CONDITION INFO: source organism: Entamoeba histolytica
pKd: −log10 of the molar value.
MEASURED PARAMETER: pKd

Query: pKd; subject: RMYWGVNPK
≤ 5.30

----------
# MEASUREMENT TARGET: HLA-B*44:02
# METHOD NOTES: IEDB peptide-MHC binding, purified MHC/direct/fluorescence; filed as Kd, often an IC50 or EC50 that approximates it; bounds were set here for any values at or beyond the usual limits of such assays
# CONDITION INFO: source organism: Influenza A virus (A/swine/Korea/S190/2004(H9N2))
MEASURED PARAMETER: Kd

Look up Kd with HLA-B*44:02 for this sequence: IPKRNRSIL
≥ 20 µM

----------
# MEASUREMENT TARGET: HLA-B*08:01
# METHOD NOTES: IEDB peptide-MHC binding, purified MHC/competitive/fluorescence; bounds were set here for any values at or beyond the usual limits of such assays
# CONDITION INFO: source organism: Zaire ebolavirus
MEASURED PARAMETER: IC50 (µM)
Entry rule: numbers only, all in µM.

Query: IC50; subject: FSILNRKAI
21.6

----------
# MEASUREMENT TARGET: HLA-B*53:01
# METHOD NOTES: IEDB peptide-MHC binding, purified MHC/competitive/radioactivity; filed as Kd, often an IC50 or EC50 that approximates it; bounds were set here for any values at or beyond the usual limits of such assays
# CONDITION INFO: source organism: Dengue virus 1 Singapore/S275/1990
MEASURED PARAMETER: Kd (nM)
Entry rule: numbers only, all in nM.

Query: Kd; subject: MEVTARWLW
804

----------
# MEASUREMENT TARGET: HLA-A*30:01
# METHOD NOTES: IEDB peptide-MHC binding, purified MHC/direct/fluorescence; filed as Kd, often an IC50 or EC50 that approximates it; bounds were set here for any values at or beyond the usual limits of such assays
# CONDITION INFO: source organism: Pseudomonas aeruginosa
MEASURED PARAMETER: pKd
Note on pKd: it is the negative log10 of concentration, concentration in mol/L.

Query: pKd; subject: NWDWGVFFK
5.68

----------
# MEASUREMENT TARGET: HLA-A*02:12
# METHOD NOTES: IEDB peptide-MHC binding, purified MHC/competitive/fluorescence; filed as Kd, often an IC50 or EC50 that approximates it; bounds were set here for any values at or beyond the usual limits of such assays
# CONDITION INFO: source organism: Deerpox virus W-848-83
pKd: −log10 of the molar value.
MEASURED PARAMETER: pKd

Look up pKd with HLA-A*02:12 for this sequence: YVAGITLTH
≤ 4.70

----------
# MEASUREMENT TARGET: HLA-A*30:01
# METHOD NOTES: IEDB peptide-MHC binding, purified MHC/competitive/radioactivity; filed as Kd, often an IC50 or EC50 that approximates it; bounds were set here for any values at or beyond the usual limits of such assays
# CONDITION INFO: source organism: Vaccinia virus WR
# note: boundary value 40 nM maps to F; Kd below it maps to T

{"RESIDUE SEQUENCE": "MSLRSTIIK", "MEASUREMENT TARGET": "HLA-A*30:01", "GROUP": "T"}
{"RESIDUE SEQUENCE": "RSQSSTIIV", "MEASUREMENT TARGET": "HLA-A*30:01", "GROUP": "F"}
{"RESIDUE SEQUENCE": "SSKVFLKAF", "MEASUREMENT TARGET": "HLA-A*30:01", "GROUP": "F"}
{"RESIDUE SEQUENCE": "RTICTLPYL", "MEASUREMENT TARGET": "HLA-A*30:01", "GROUP": "T"}
{"RESIDUE SEQUENCE": "LIGARRTSF", "MEASUREMENT TARGET": "HLA-A*30:01", "GROUP": "F"}

Decide: Kd of MIKIALSVA strictly below 40 nM?
F

Repeat with RLQPNQPPK
F

Repeat with LIRNKRLSL
F

----------
# MEASUREMENT TARGET: HLA-B*39:01
# METHOD NOTES: IEDB peptide-MHC binding, purified MHC/competitive/fluorescence; filed as Kd, often an IC50 or EC50 that approximates it; bounds were set here for any values at or beyond the usual limits of such assays
# CONDITION INFO: source organism: Homo sapiens
pKd: −log10 of the molar value.
MEASURED PARAMETER: pKd

Query: pKd; subject: VTSSVSSGY
≤ 4.70

----------
# MEASUREMENT TARGET: HLA-B*27:03
# METHOD NOTES: IEDB peptide-MHC binding, purified MHC/competitive/fluorescence; filed as Kd, often an IC50 or EC50 that approximates it; bounds were set here for any values at or beyond the usual limits of such assays
# CONDITION INFO: source organism: Giardia lamblia ATCC 50803
MEASURED PARAMETER: Kd

Query: Kd; subject: KVSWRWMVY
≥ 20 µM

----------
Parameter: pKd. Scope: all listed entries.
# MEASUREMENT TARGET: HLA-B*48:01
# METHOD NOTES: IEDB peptide-MHC binding, purified MHC/direct/fluorescence; filed as Kd, often an IC50 or EC50 that approximates it; bounds were set here for any values at or beyond the usual limits of such assays
# CONDITION INFO: source organism: Camelpox virus M-96
pKd: −log10 of the molar value.

Query: pKd; subject: RVATENIAV
≤ 4.70

Repeat with IQFMHEQGY
≤ 4.70

----------
# MEASUREMENT TARGET: HLA-A*02:01
# METHOD NOTES: IEDB peptide-MHC binding, purified MHC/competitive/radioactivity; filed as Kd, often an IC50 or EC50 that approximates it; bounds were set here for any values at or beyond the usual limits of such assays
# CONDITION INFO: source organism: Trypanosoma cruzi
Parameter: Kd. Scope: all listed entries.
Entry rule: numbers only, all in nM.

{"RESIDUE SEQUENCE": "FLHKRFTLV", "MEASUREMENT TARGET": "HLA-A*02:01", "Kd [nM]": 0.614}

Query: Kd; subject: LLGLWGFAAL
222

----------
# MEASUREMENT TARGET: HLA-A*02:02
# METHOD NOTES: IEDB peptide-MHC binding, purified MHC/competitive/radioactivity; filed as Kd, often an IC50 or EC50 that approximates it; bounds were set here for any values at or beyond the usual limits of such assays
# CONDITION INFO: source organism: Mammarenavirus whitewaterense
MEASURED PARAMETER: Kd (nM)
Entry rule: numbers only, all in nM.

Query: Kd; subject: GLLQFIVFL
0.6
